Hello, the source for this data is PubChem BioAssay (EPA / NIEHS), in case you need it.

Read-out: xenobiotic metabolism (CYP1A1), CYP1A1 (gene 1543)
assay.notes: CLD_CYP1A1_24hr: CellzDirect (CLD) Gene Expression Assay for xenobiotic metabolism (CYP1A1) at 24 hours (AID 2283673);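 also: CYP1A1 mRNA level by quantitative nuclease protection with chemiluminescence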
Results filed as inconclusive are left out. Activity calls are given as the source filed them. The calls were made as follows: active = hit-call score of the fitted dose curve at least 0.9, where 1 is the maximum; inconclusive = response in the unintended direction; inactive = score below 0.9.
test.readout: AC50

Consider the following illustrative entries.
compound	result
OC(c1ccc(Cl)cc1)(c1ccc(Cl)cc1)C(Cl)(Cl)Cl	20 µM (active)
O=C(O)c1c(Cl)ccc2cc(Cl)cnc12	inactive
N#CN=C1SCCN1Cc1ccc(Cl)nc1	inactive
CS(=O)(=O)c1cc(C(F)(F)F)ccc1C(=O)c1cnoc1C1CC1	inactive
COC(=O)N(C(=O)N1CO[C@@]2(C(=O)OC)Cc3cc(Cl)ccc3C2=N1)c1ccc(OC(F)(F)F)cc1	1.86 µM (active)

**Q:** # query: AC50 of entry CC1(C)C(C=C(Cl)Cl)C1C(=O)OC(C#N)c1cccc(Oc2ccccc2)c1 (centres undefined)
**A:** 8.15 µM (active)

**Q:** # query: AC50 of entry CC1(C)CCC(=Cc2ccc(Cl)cc2)C1(O)Cn1cncn1 (centres undefined)
**A:** 4.02 µM (active)

**Q:** # query: AC50 of entry `COc1ccc(-c2ccccc2)cc1NNC(=O)OC(C)C`
**A:** 14.1 µM (active)

**Q:** # query: AC50 of entry `CCN(CC)c1nc(C)cc(OP(=S)(OC)OC)n1`
**A:** 5.14 µM (active)

**Q:** # query: AC50 of entry CCCCC(O)(Cn1cncn1)c1ccc(Cl)cc1Cl (centres undefined)
**A:** 4.35 µM (active)

**Q:** # query: AC50 of entry CCCC(=NOCC)C1=C(O)CC(CC(C)SCC)CC1=O (centres undefined)
**A:** inactive
